B1: Ribonuclease, P00648 (parent)
chain: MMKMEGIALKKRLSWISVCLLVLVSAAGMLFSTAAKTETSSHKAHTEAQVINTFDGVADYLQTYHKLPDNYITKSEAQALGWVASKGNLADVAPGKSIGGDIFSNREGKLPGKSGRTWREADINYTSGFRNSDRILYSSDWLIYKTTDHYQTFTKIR

variants of: B1; conditions: Bacillus amyloliquefaciens; pH 6.3; 25 °C; Urea; Fluorescence; MES 450 mM; reversible: yes (100%); structure 1BNI; whole UniProt chain shown
Use 4 kcal/mol as the dividing line for ddG of mutation (higher = less stable), with the line itself on the TRUE side and lower values as FALSE.

Example cases with answers are listed next.
| variant.code | assigned.class |
| --- | --- |
| L61A | TRUE |
| I135V | FALSE |
| I143A | FALSE |

stdin: Entry I143V : is its ddG of mutation (higher = less stable) no less than 4 kcal/mol?
stdout: FALSE
